- Target system: Tyrosine-protein kinase JAK2 (Homo sapiens, UniProt O60674)
- Sequence (O60674 whole entry): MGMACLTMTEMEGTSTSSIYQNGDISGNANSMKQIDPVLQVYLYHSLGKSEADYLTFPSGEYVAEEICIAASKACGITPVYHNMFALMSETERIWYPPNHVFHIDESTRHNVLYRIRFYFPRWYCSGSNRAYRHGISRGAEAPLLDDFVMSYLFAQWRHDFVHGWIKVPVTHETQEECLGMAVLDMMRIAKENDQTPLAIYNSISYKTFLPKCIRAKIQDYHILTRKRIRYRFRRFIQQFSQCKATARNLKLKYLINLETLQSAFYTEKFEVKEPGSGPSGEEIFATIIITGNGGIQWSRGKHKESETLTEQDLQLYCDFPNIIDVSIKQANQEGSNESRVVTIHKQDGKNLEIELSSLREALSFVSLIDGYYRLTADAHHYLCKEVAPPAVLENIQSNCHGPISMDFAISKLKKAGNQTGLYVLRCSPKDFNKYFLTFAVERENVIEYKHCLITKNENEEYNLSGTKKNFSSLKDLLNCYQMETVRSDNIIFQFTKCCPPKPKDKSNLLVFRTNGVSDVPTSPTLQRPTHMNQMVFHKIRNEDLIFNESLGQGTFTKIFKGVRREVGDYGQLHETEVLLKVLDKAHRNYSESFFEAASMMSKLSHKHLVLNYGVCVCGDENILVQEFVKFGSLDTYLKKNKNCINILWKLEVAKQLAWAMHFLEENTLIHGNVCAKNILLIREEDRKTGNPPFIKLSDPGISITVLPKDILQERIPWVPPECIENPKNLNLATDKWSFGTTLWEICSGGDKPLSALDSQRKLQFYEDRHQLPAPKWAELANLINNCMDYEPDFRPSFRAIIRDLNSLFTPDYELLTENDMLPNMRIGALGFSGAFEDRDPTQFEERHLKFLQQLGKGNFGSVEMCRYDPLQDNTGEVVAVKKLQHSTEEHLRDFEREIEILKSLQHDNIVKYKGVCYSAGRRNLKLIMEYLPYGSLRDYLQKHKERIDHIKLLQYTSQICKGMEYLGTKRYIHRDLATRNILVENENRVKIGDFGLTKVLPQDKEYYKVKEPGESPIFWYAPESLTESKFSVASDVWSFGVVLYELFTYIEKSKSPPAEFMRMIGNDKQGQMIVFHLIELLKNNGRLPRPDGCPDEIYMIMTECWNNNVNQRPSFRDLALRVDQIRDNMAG
- Setup conditions: HEK293F, dose 100.0 µM
Recorded ΔTm values for a group of compounds are listed next.
Parameter: ΔTm (°C)

Compound	Parameter	Readout number
N#CCC(C1CCCC1)n1cc(-c2nc(Nc3ccc(C4CCNCC4)cc3)nc3[nH]ccc23)cn1 (racemic)	ΔTm	11.8
N#CC[C@H](C1CCCC1)n1cc(-c2nc(Nc3ccc(C4CCNCC4)cc3)nc3[nH]ccc23)cn1	ΔTm	12
N#CC[C@@H](C1CCCC1)n1cc(-c2nc(Nc3ccc(C4CCNCC4)cc3)nc3[nH]ccc23)cn1	ΔTm	8.3
Cc1cnc(Nc2ccc(C3CCN(C)CC3)c(F)c2)nc1Nc1ccc2c(c1)N(S(=O)(=O)C(C)(C)C)CC2	ΔTm	4.3
N#CCCn1cc(-c2nc(Nc3ccc(C4CCNCC4)cc3)nc3[nH]ccc23)cn1	ΔTm	7
Cc1cnc(Nc2cc(F)c(C3CCN(C)CC3)c(F)c2)nc1Nc1ccc(F)c(NS(=O)(=O)C(C)(C)C)c1	ΔTm	3.2
Cc1cnc(Nc2ccc(C3CCN(C)CC3)c(F)c2)nc1Nc1ccc(F)c(NS(=O)(=O)C(C)(C)C)c1	ΔTm	3.1
C=CCCn1cc(-c2nc(Nc3ccc(C4CCNCC4)cc3)nc3[nH]ccc23)cn1	ΔTm	6.4
